# TARGET_OR_SYSTEM: h-pTM8-h-CFTR (human CFTR, three TM8 amino acids replaced with pig's) (Homo sapiens, UniProt P13569, F931L/M929L/T925G)
# Sequence (P13569 whole entry T925G/M929L/F931L): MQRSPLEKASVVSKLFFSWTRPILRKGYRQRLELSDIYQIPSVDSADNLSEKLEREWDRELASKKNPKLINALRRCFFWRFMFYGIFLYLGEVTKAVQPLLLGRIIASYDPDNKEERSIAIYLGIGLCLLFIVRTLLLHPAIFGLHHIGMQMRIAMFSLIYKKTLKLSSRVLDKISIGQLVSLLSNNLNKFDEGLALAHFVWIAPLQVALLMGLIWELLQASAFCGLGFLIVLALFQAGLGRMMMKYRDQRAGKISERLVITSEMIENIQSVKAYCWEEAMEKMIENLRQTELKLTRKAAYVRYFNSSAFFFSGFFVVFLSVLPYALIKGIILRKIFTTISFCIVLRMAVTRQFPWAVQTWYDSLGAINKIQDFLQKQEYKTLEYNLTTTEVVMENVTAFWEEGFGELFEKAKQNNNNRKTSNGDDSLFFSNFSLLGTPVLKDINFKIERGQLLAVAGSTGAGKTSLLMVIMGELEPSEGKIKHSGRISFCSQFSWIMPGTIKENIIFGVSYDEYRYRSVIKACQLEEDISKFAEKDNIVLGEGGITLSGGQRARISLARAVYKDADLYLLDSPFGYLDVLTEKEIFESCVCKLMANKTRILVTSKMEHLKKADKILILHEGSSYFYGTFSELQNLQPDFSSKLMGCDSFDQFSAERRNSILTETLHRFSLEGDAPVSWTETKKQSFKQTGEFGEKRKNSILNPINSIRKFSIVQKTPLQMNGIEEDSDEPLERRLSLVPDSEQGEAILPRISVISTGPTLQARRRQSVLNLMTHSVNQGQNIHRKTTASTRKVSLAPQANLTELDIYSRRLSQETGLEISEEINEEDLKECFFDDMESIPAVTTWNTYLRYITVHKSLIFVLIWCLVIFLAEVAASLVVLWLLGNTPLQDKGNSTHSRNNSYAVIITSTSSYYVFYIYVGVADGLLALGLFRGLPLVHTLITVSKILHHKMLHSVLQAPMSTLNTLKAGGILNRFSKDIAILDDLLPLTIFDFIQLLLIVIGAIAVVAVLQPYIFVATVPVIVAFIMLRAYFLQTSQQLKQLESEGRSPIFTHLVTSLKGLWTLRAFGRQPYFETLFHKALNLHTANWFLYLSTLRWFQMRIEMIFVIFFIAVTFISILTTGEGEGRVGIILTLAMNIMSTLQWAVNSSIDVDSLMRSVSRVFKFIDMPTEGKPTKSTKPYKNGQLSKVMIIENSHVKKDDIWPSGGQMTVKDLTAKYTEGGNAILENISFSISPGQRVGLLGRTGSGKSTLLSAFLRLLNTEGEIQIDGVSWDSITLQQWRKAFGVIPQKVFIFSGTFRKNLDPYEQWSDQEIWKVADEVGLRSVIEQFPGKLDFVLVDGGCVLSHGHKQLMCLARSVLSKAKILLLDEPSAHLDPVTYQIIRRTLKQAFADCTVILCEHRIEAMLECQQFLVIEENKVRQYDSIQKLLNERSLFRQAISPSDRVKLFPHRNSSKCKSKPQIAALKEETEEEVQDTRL
# ASSAY_NOTES: Inside-out patch-clamp inhibition of CFTR current by Inh-172
# EXPERIMENTAL_SETUP: h-pTM8-h
RECORDED_METRIC: pIC50
Lab note: report pIC50 as minus log10 of the concentration in molar units, number only.

So what's the measured pIC50 for this one? O=C(O)c1ccc(/C=C2\SC(=S)N(c3cccc(C(F)(F)F)c3)C2=O)cc1
6.19

* * *

# TARGET_OR_SYSTEM: h-pTMD1-h-CFTR (human CFTR with pig CFTR's TMD1) (Homo sapiens, UniProt P13569, A209T/D426N/E115A/E407K/F315L/F87I/G228A/I125V/I215L/I231V/I328L/I332M/L145P/N418S/N445S/P41S/Q39H/R242K/S256N/T421I/V11I/V12F/V43S)
# Sequence (P13569 1-1480 with the stated changes): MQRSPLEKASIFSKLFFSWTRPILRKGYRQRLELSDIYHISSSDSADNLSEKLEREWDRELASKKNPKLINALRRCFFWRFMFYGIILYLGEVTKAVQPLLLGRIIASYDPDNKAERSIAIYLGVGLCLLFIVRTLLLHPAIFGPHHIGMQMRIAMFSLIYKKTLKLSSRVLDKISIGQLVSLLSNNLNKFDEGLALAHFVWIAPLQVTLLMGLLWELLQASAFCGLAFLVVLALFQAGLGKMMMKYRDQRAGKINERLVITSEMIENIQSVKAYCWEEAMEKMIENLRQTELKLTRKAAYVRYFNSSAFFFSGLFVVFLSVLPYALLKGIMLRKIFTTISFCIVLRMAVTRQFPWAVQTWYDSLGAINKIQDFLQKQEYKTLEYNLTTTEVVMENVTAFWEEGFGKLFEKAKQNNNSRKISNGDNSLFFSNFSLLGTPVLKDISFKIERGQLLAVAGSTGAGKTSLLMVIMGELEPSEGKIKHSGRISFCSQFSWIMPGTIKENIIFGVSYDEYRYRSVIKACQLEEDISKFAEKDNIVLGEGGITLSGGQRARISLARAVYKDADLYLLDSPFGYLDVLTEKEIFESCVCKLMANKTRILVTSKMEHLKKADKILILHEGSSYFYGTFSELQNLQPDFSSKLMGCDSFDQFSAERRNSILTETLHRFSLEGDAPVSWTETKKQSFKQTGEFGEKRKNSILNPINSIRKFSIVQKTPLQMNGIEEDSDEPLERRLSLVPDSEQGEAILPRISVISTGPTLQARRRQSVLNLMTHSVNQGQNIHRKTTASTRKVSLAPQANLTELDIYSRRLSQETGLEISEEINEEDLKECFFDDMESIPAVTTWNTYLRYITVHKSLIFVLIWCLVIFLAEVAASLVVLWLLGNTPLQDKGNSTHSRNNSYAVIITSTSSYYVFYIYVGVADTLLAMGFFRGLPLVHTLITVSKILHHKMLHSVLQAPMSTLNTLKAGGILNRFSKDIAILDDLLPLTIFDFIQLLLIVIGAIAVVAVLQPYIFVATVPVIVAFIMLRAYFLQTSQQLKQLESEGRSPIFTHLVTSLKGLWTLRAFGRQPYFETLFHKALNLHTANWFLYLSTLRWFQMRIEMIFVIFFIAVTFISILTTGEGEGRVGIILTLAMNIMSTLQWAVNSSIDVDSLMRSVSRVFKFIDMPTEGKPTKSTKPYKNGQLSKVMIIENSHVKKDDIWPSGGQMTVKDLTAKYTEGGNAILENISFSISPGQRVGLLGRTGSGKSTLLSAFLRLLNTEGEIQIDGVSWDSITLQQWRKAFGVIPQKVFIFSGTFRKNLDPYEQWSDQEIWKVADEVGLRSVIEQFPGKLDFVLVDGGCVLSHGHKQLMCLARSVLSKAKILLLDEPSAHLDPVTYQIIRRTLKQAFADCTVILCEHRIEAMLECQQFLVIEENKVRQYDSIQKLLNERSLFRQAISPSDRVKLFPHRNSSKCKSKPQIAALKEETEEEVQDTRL
# ASSAY_NOTES: Inside-out patch-clamp inhibition of CFTR current by Inh-172
# EXPERIMENTAL_SETUP: h-pTMD1-h
# Experimental: CHO cells were grown at 37 °C in Dulbecco’s modified Eagle’s medium supplemented with 10% (vol/vol) fetal bovine serum (Sigma-Aldrich, St. Louis, MO). pcDNA plasmids carrying the desired CFTR construct were transfected to CHO cells using PolyFect transfection reagent (Qiagen, Hilden, Germany) together with green fluorescence protein (GFP) cDNA (pEGFP-C3, Takara Bio, Shiga, Japan) that helps identify expression of CFTR. […]
RECORDED_METRIC: IC50 (nM)
Field format: number, assumed nM, no unit text.

Looking for the measured IC50 of O=C(O)c1ccc(/C=C2\SC(=S)N(c3cccc(C(F)(F)F)c3)C2=O)cc1 , can you help?
110
